Target: human CB2 receptor (Homo sapiens)
Construct: expressed in transfected cells
Sequence (P34972 whole entry): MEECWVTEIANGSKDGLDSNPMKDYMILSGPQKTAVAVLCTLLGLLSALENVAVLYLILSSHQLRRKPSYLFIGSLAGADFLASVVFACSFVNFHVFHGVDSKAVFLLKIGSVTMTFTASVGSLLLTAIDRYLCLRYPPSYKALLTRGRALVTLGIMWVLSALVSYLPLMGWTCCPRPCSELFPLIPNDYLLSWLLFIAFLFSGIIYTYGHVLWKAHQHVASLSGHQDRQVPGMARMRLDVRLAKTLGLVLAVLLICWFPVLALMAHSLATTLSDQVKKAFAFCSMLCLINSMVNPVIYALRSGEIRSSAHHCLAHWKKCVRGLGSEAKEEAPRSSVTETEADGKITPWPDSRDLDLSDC
Experiment: Human CB2 receptor binding inhibition test ([3H]CP-55,940, CHO membrane fractions)
Conditions: [3H]CP-55,940, membrane fractions of CHO cells stably expressing human CB2 receptor, 25° C., 2 hours; read-out: CB2 IC50 (Inhibition of binding to human CB2 receptor)
test_readout: IC50 (nM)
Quick note: give the figure in nM, leave out the unit.

Before answering, review these 3 worked examples.
{"compound": "Cc1c(C(C)(C)C)s/c(=N\\C(=O)c2ccc(Br)cc2F)n1CC1CC1 [compound 227]", "assay_result": 8.2}
{"compound": "Cc1s/c(=N\\C(=O)c2ccccc2I)n(CC2CC2)c1C [compound 78]", "assay_result": 9.8}
{"compound": "Cc1c(C(C)(C)C)s/c(=N\\C(=O)c2cc(Br)ccc2F)n1C [compound 132]", "assay_result": 15.7}

Ask: GET IC50 | system: human CB2 receptor (Homo sapiens) | item: O=C(/N=c1\ccc(F)cn1CC1CC1)c1cccc(C(F)(F)F)c1F [compound 37]
Result: 11.3
